Molecular target: T1, recombinant DLL3 ectodomain (rhDLL3-Fc) (human, UniProt Q9NYJ7 27-492, biotinylated (NHS-LC-LC-biotin) in the BLI and SPR assays)
T1 construct: also called rDLL3-Fc; recombinant human DLL3 (rDLL3); not shown: Fc part
T1 sequence: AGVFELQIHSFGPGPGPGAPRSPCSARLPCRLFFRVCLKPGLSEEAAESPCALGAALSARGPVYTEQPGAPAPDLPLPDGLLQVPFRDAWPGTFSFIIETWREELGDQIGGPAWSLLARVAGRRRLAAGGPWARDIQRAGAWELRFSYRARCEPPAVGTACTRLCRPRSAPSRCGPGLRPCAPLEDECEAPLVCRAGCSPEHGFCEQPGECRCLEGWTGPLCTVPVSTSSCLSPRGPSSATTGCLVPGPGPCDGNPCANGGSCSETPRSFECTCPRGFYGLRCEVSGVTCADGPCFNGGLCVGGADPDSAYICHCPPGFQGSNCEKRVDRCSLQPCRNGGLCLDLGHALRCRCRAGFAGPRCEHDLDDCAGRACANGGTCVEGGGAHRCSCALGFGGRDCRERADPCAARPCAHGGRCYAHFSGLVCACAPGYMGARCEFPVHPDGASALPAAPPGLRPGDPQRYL
Assay: BLI (Octet), biotinylated rhDLL3-Fc on streptavidin sensors
Bridge positions count the residues as written; N and C are the ends. Ends that are not written are not given here.
RT (residence time) below 70 s gives N; RT (residence time) at or above it gives Y.

State whether the measured RT (residence time) reaches 70 s, counting equality as reaching it, for AETVEFWSCKWWGGAADEYTYSCGW-NH2 (disulfide 9-23 (inferred)) [PepSP1182]
Y

State whether the measured RT (residence time) reaches 70 s, counting equality as reaching it, for AETVEFWDCWGNTDDWTCTW-NH2 (disulfide 9-18 (inferred)) [PepSP1161]
Y

State whether the measured RT (residence time) reaches 70 s, counting equality as reaching it, for AETVEFRGCTGNVYDWTCVW-NH2 (disulfide 9-18 (inferred)) [PepSP1160]
N

State whether the measured RT (residence time) reaches 70 s, counting equality as reaching it, for AETVEFYGCRGGDGEWTCVW-NH2 (disulfide 9-18 (inferred)) [PepSP1165]
N

State whether the measured RT (residence time) reaches 70 s, counting equality as reaching it, for WDCWGNTDDWTCTW-NH2 (disulfide 3-12 (inferred), PepSP1161 without AETVEF) [PepSP1269]
N

State whether the measured RT (residence time) reaches 70 s, counting equality as reaching it, for AETVEFYGCQYYGWDYTCAW-NH2 (disulfide 9-18 (inferred)) [PepSP1176]
N

State whether the measured RT (residence time) reaches 70 s, counting equality as reaching it, for AETVEFYGCETYSGGWTCLW-NH2 (disulfide 9-18 (inferred)) [PepSP1167]
N

State whether the measured RT (residence time) reaches 70 s, counting equality as reaching it, for AETVEFYGCSMDWRGVTCAW-NH2 (disulfide 9-18 (inferred)) [PepSP1158]
N

State whether the measured RT (residence time) reaches 70 s, counting equality as reaching it, for AETVEYWRCDWYEETVACGT-NH2 (disulfide 9-18 (inferred)) [PepSP1155]
Y

State whether the measured RT (residence time) reaches 70 s, counting equality as reaching it, for AETVEFYGCSVNADGWTCSW-NH2 (disulfide 9-18 (inferred)) [PepSP1170]
N

State whether the measured RT (residence time) reaches 70 s, counting equality as reaching it, for AETVEFLGCHGDNSEWTCVW-NH2 (disulfide 9-18 (inferred)) [PepSP1163]
Y

State whether the measured RT (residence time) reaches 70 s, counting equality as reaching it, for AETVEFYGCWGNYNDYTCSW-NH2 (disulfide 9-18 (inferred)) [PepSP1177]
N

State whether the measured RT (residence time) reaches 70 s, counting equality as reaching it, for AETVEFDYCYGDVEEWTCVY-NH2 (disulfide 9-18 (inferred)) [PepSP1166]
N

State whether the measured RT (residence time) reaches 70 s, counting equality as reaching it, for AETVEFWSCHYSYWTVSCGT-NH2 (disulfide 9-18 (inferred)) [PepSP1157]
Y

State whether the measured RT (residence time) reaches 70 s, counting equality as reaching it, for AETVEFWTCYWTEGVSGCRW-NH2 (disulfide 9-18 (inferred)) [PepSP1151]
Y

State whether the measured RT (residence time) reaches 70 s, counting equality as reaching it, for AETVEFYGCYGEQEQWTCLW-NH2 (disulfide 9-18 (inferred)) [PepSP1173]
Y
